pIC50: −log10 of the molar value.
Literature pIC50 values, system: Cytochrome P450 3A4 (Homo sapiens, UniProt P08684).
Sequence (P08684 whole entry): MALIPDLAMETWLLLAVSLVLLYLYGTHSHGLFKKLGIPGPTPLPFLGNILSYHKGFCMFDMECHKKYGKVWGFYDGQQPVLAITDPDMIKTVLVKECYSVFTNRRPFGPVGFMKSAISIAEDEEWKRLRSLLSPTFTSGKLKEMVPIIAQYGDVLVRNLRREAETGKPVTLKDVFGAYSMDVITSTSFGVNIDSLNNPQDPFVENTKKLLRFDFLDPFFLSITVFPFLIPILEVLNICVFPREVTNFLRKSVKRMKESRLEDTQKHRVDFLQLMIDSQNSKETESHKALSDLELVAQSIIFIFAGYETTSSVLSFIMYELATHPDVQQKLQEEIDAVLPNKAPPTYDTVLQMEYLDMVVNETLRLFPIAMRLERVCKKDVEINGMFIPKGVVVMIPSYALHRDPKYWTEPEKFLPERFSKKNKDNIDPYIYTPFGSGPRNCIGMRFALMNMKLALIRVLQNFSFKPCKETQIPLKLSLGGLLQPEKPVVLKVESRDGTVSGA

Reference set, count: 5
>>> test_result("Cc1c(N2CC(F)(F)C2)nc2ccc(Br)cc2c1C(=O)NCC(CCC(=O)O)c1ccccc1Cl (racemic)")
"< 4.70"
>>> test_result("NC(=O)[C@@H]1C[C@H](F)CN1Cc1ccc(OCc2cccc(F)c2)cc1")
"< 4.54"
>>> test_result("CC1(c2ccccc2)CCCN(C(=O)NCCc2ccc3nccnc3c2)C1 (configuration not stated)")
"> 5.00"
>>> test_result("COc1ccc(CN(Cc2ccc(Cl)c(Cl)c2)C(=O)c2ccc3nc(N)sc3c2)cc1OC")
"> 5.00"
>>> test_result("OC(Cn1cnnn1)(c1ccc(F)cc1F)C(F)(F)c1ccc(C#Cc2ccc(OCc3ccc(C(F)(F)F)cc3)cc2)cn1 (configuration not stated)")
"< 3.70"

State pIC50 on Cytochrome P450 3A4 (Homo sapiens, UniProt P08684). Entry: `Nc1cc(CN2CCC(C(=O)N3CCC(n4c(=O)n(CC5CCCCC5)c5cc(F)ccc54)CC3)CC2)ccn1`
< 4.52

Report value: pIC50, system: Cytochrome P450 3A4 (Homo sapiens, UniProt P08684), compound: `O=C(O)CCc1c(Cn2c(=O)n(C3CC3)c3ccncc32)nc2cc(Cl)ccn12`
< 4.30

# return pIC50 for `CO[C@@H](C)c1c(NC(=O)Nc2cnc(-n3nccn3)c(Cl)c2)cnc2cc(Cl)nn12` , test system: Cytochrome P450 3A4 (Homo sapiens, UniProt P08684)
< 4.70

# lookup: Cytochrome P450 3A4 (Homo sapiens, UniProt P08684) pIC50, key = `c1cc2c3cnc(Nc4ccc(N5CCNCC5)cn4)nc3n(C3CCCC3)c2nn1`
< 5.00

Fill in: pIC50 on Cytochrome P450 3A4 (Homo sapiens, UniProt P08684), entry N#CC(C(=O)NCC(=O)NC1COC1)c1nc2ccc(-c3ccc(F)nc3)cc2s1 (racemic)
< 4.74

Report value: pIC50, system: Cytochrome P450 3A4 (Homo sapiens, UniProt P08684), compound: `Cc1nc(NC(=O)N2CCC[C@H]2C(N)=O)sc1-c1ccnc(C(C)C)n1`
< 5.00

Jot down pIC50 (Cytochrome P450 3A4 (Homo sapiens, UniProt P08684)) of `CC#CCn1c(N2CCCNCC2)c(C#N)c2c1c(=O)n(Cc1c(C#N)cnc3ccccc13)c(=O)n2C` .
≤ 5.00

Send back Cytochrome P450 3A4 (Homo sapiens, UniProt P08684) pIC50 of `COCCN(C[C@H]1Cc2c(cccc2N2CCNCC2)CN1)[C@H]1CCCc2cccnc21` only.
< 4.70

GET pIC50 where system = Cytochrome P450 3A4 (Homo sapiens, UniProt P08684) and item = `CN1CCN(Cc2ccc3c(c2)-c2[nH]nc(-c4ccsc4)c2C3)CC1`
< 5.00

Write down the reported pIC50 (system: Cytochrome P450 3A4 (Homo sapiens, UniProt P08684)) of `COCCCN1CCN([C@H]2CC[C@H](n3nc(-c4ccc5nc(Cc6ccccc6OC)[nH]c5c4)c4c(N)ncnc43)CC2)CC1`
< 4.70

Give pIC50 for this entry on Cytochrome P450 3A4 (Homo sapiens, UniProt P08684): `Cc1c(C(=O)NCCCN2CCN(c3cccc(Cl)c3Cl)CC2)cc(-c2ccccc2)n1C`
< 4.70

For Cytochrome P450 3A4 (Homo sapiens, UniProt P08684), give the measured pIC50 of the entry `CC1([C@@H]2CC(=O)N(CCOc3ccc(F)c(C#N)c3)C2)CCS(=O)(=O)CC1`
< 4.30

Give measured pIC50 for `CCc1cc2c(cc1F)c(C#N)c(-c1ccc(S(=O)(=O)N[C@@H](C)C(F)(F)F)cn1)n2-c1ccccn1` (Cytochrome P450 3A4 (Homo sapiens, UniProt P08684)).
< 5.00

Enter recorded pIC50 with Cytochrome P450 3A4 (Homo sapiens, UniProt P08684) for `c1cncc(-c2ccc(CNCc3ccc(-c4cccnc4)s3)s2)c1` here.
< 3.40

Name the recorded pIC50 of `Cc1cc(-c2ccc3c(c2)-c2nnc(Oc4ccccc4Cl)n2CCO3)ccn1` , assay system Cytochrome P450 3A4 (Homo sapiens, UniProt P08684).
< 4.30

Recall the reported pIC50 of `O=C(O)/C=C/c1ccc(Cn2ccnc2)cc1OCCc1ccc2ccccc2c1` when tested on Cytochrome P450 3A4 (Homo sapiens, UniProt P08684).
> 6.00

Retrieve pIC50 on Cytochrome P450 3A4 (Homo sapiens, UniProt P08684); query CS(=O)(=O)c1ccc2c(c1)C(=O)CC1(CCN(C(=O)N[C@@H]3CC[C@@H](c4ccccc4)C3)CC1)O2 (racemic)
< 5.00
